Test: Repeated Topiramate dosing: plasma and brain concentrations
Type: in vivo
Conditions: rat, plasma, other: IN (intranasal) via SipNose device, 0.78 mg, rats, group 3M liquid IN, 45 minutes, read-out: Topiramate plasma concentration after the first administration
RESULT_TYPE: concentration at 45 min (ng/mL)
Unit ng/mL implied. Number only.

Query CC1(C)O[C@@H]2[C@@H](CO[C@@]3(COS(N)(=O)=O)OC(C)(C)O[C@@H]23)O1 [Topiramate] yields concentration at 45 min of 1510

---

Test: Repeated Topiramate dosing: plasma and brain concentrations
Type: in vivo
Settings: rat, plasma, po, 0.78 mg, rats, group 2M liquid oral, 45 minutes, read-out: Topiramate plasma concentration after the first administration
RESULT_TYPE: concentration at 45 min (ng/mL)
Unit ng/mL implied. Number only.

Query CC1(C)O[C@@H]2[C@@H](CO[C@@]3(COS(N)(=O)=O)OC(C)(C)O[C@@H]23)O1 [Topiramate] yields concentration at 45 min of 2070

---

Assay: Repeated Topiramate dosing: plasma and brain concentrations
Assay type: in vivo
Conditions: rat, brain, other: IN (intranasal) via SipNose device, 0.78 mg, rats; group 4M powder IN; read-out: Topiramate brain concentration following the 11th administration
RESULT_TYPE: concentration at 45 min (ng/mL)
Unit ng/mL implied. Number only.

Query CC1(C)O[C@@H]2[C@@H](CO[C@@]3(COS(N)(=O)=O)OC(C)(C)O[C@@H]23)O1 [Topiramate] yields concentration at 45 min of 1030

---

Assay: in vivo
Conditions: male, Sprague-Dawley, rat, po, 6 mg, AUC (estimated)
RESULT_TYPE: AUC (ng·h/mL)
Unit ng·h/mL implied. Number only.

Query CC1(C)O[C@@H]2[C@@H](CO[C@@]3(COS(N)(=O)=O)OC(C)(C)O[C@@H]23)O1 [Topiramate] yields AUC of 11800

---

Assay: in vivo
Conditions: male, Sprague-Dawley, rat, 6 mg, Half-life (estimated)
RESULT_TYPE: half-life (min)
Unit min implied. Number only.

Query CC1(C)O[C@@H]2[C@@H](CO[C@@]3(COS(N)(=O)=O)OC(C)(C)O[C@@H]23)O1 [Topiramate] yields half-life of 45

---

Test: in vivo
Details: male, Sprague-Dawley, rat, inhaled or intranasal, 6 mg, Half-life (estimated)
RESULT_TYPE: half-life (min)
Unit min implied. Number only.

Query CC1(C)O[C@@H]2[C@@H](CO[C@@]3(COS(N)(=O)=O)OC(C)(C)O[C@@H]23)O1 [Topiramate] yields half-life of 259

---

Assay: Repeated Topiramate dosing: plasma and brain concentrations
Type: in vivo
Conditions: rat, plasma, other: IN (intranasal) via SipNose device, 0.78 mg, rats, group 4M powder IN, 45 minutes, read-out: Topiramate plasma concentration after the first administration
RESULT_TYPE: concentration at 45 min
Report field: quantity (unit follows the number).

Query CC1(C)O[C@@H]2[C@@H](CO[C@@]3(COS(N)(=O)=O)OC(C)(C)O[C@@H]23)O1 [Topiramate] yields concentration at 45 min of 4140 ng/mL

---

Experiment: Repeated Topiramate dosing: plasma and brain concentrations
Type: in vivo
Conditions: rat, plasma, other: IN (intranasal) via SipNose device, 0.78 mg, rats; group 4M powder IN; read-out: Topiramate plasma (blood) concentration following the 11th administration
RESULT_TYPE: concentration at 45 min (µg/mL)
Unit µg/mL implied. Number only.

Query CC1(C)O[C@@H]2[C@@H](CO[C@@]3(COS(N)(=O)=O)OC(C)(C)O[C@@H]23)O1 [Topiramate] yields concentration at 45 min of 1.98
